Values compiled from paper doi:10.1101/2020.03.08.982454v1.

tested_system: KMP-11 (Leishmania donovani, UniProt Q36736, Y89W)
measurement_notes: biochemical
measured_property: Kd (nM)
Numeric only. Scale: nM

Qu. Tell me measured Kd for CCCCCCCCCCCCCCCC(=O)OC[C@H](COP(=O)([O-])OCC[N+](C)(C)C)OC(=O)CCCCCCCCCCCCCCC [DPPC] please.
Ans. 161
